# tgt: human bradykinin 1 receptor (B1R) (Homo sapiens)
# Construct: expressed in transfected cells; host or cells: CHO K1 cells
# Sequence (P46663 1-353): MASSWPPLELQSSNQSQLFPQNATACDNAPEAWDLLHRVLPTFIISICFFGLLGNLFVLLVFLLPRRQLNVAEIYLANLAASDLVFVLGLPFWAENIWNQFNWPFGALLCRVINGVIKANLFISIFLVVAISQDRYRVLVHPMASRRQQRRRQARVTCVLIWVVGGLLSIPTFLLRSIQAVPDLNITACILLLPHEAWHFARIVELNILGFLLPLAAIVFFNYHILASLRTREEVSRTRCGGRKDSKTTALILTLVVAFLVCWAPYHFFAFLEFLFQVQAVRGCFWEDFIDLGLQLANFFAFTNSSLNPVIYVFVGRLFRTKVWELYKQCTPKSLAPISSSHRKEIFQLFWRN
# protocolDetails: Functional investigation on the human bradykinin 1 receptor (B1R), Ca2+ FLIPR assay in CHO K1 hB1R cells
# Assay type: cell-based
# condition: CHO-K1, B1R antagonism human; test substance 10 μM; Ca2+ FLIPR, CHO K1 hB1R cells; read-out: B1R Ant. h [10 μM] % Inhibition
// not satisfied strictly below 70% in inhibition at 10 µM; satisfied otherwise

[in] In plain terms: is recorded inhibition at 10 µM at least 70% for COc1ccccc1-c1noc(C(=O)NCC(=O)NCC2CCC(C(c3cccc(F)c3)N(C)C)CC2)n1 (centres unmarked) ?
[out] not satisfied

[in] In plain terms: is recorded inhibition at 10 µM at least 70% for CN(CCOCC(=O)NC1CCC(C(c2ccccc2)N2CCCC2)CC1)S(=O)(=O)c1ccc(Cl)cc1Cl (centres unmarked) ?
[out] satisfied

[in] In plain terms: is recorded inhibition at 10 µM at least 70% for COc1cc(C)c(S(=O)(=O)N2CCN(CCOCC(=O)NCCC3CCC(C(c4cccc(F)c4)N(C)C)CC3)CC2)c(C)c1C (centres unmarked) ?
[out] satisfied

[in] In plain terms: is recorded inhibition at 10 µM at least 70% for CN(C)C(c1ccccc1)C1CCC(NC(=O)CCNC(=O)c2nc(-c3ccccn3)no2)CC1 (centres unmarked) ?
[out] not satisfied

[in] In plain terms: is recorded inhibition at 10 µM at least 70% for COc1cc(C)c(S(=O)(=O)N2CCC(CCOCC(=O)NCCC3CCC(C(c4cccs4)N(C)C)CC3)CC2)c(C)c1C (centres unmarked) ?
[out] not satisfied

[in] In plain terms: is recorded inhibition at 10 µM at least 70% for CN1CCN(C(c2ccccc2)C2CCC(NC(=O)COCCN(C)S(=O)(=O)c3c(Cl)cc(C(F)(F)F)cc3Cl)CC2)CC1 (centres unmarked) ?
[out] not satisfied

[in] In plain terms: is recorded inhibition at 10 µM at least 70% for CN(CCOCC(=O)NCC1CCC(C(c2ccccc2)N2CCCC2)CC1)S(=O)(=O)c1c(Cl)cccc1Cl (centres unmarked) ?
[out] satisfied

[in] In plain terms: is recorded inhibition at 10 µM at least 70% for COc1cc(C)c(S(=O)(=O)N(C)CCOCC(=O)NC2CCC(C(CCc3ccccc3)N3CCCCC3)CC2)c(C)c1 (centres unmarked) ?
[out] satisfied

[in] In plain terms: is recorded inhibition at 10 µM at least 70% for COc1cc(C)c(S(=O)(=O)N(C)CCOCC(=O)NCC2CCC(C(CCc3ccccc3)N3CCOCC3)CC2)c(C)c1 (centres unmarked) ?
[out] satisfied

[in] In plain terms: is recorded inhibition at 10 µM at least 70% for COc1cc(C)c(S(=O)(=O)N2CCCCC2COCC(=O)NCC2CCC(C(c3ccccc3)N3CCOCC3)CC2)c(C)c1 (centres unmarked) ?
[out] satisfied

[in] In plain terms: is recorded inhibition at 10 µM at least 70% for COc1cc(C)c(S(=O)(=O)N(C)CCOCC(=O)NC2CCC(C(c3ccccc3)N3CCCC3)CC2)c(C)c1C (centres unmarked) ?
[out] satisfied

[in] In plain terms: is recorded inhibition at 10 µM at least 70% for CN(C)C(c1cccc(F)c1)C1CCC(NC(=O)COC2CCN(S(=O)(=O)c3ccc(F)cc3)C2)CC1 (centres unmarked) ?
[out] not satisfied

[in] In plain terms: is recorded inhibition at 10 µM at least 70% for CN(CCOCC(=O)NCC1CCC(C(CCc2ccccc2)N2CCCC2)CC1)S(=O)(=O)c1c(Cl)cc(Cl)cc1Cl (centres unmarked) ?
[out] satisfied

[in] In plain terms: is recorded inhibition at 10 µM at least 70% for CN(C)C(c1cccc(F)c1)C1CCC(CNC(=O)CCNC(=O)c2nc(-c3cccs3)no2)CC1 (centres unmarked) ?
[out] not satisfied

---

Provide the recorded B1R Ant. r [10 μM] % Inhibition for the entries that follow.
# tgt: bradykinin 1 receptor (B1R) of the rat (Rattus norvegicus)
# Construct: expressed in transfected cells; host or cells: CHO K1 cells
# Sequence (P97583 1-337): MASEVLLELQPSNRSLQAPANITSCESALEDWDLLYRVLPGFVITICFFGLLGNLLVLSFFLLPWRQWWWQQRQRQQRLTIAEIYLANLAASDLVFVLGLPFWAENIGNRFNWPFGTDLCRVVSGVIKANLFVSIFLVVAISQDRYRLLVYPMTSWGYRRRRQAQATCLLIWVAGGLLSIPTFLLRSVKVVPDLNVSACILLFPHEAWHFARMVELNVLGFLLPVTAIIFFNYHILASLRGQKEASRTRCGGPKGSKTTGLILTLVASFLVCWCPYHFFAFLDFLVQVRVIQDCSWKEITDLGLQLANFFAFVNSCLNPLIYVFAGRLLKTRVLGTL
# protocolDetails: Functional investigation on the rat bradykinin 1 receptor (B1R), Ca2+ FLIPR assay in CHO K1 rB1R cells
# Type: cell-based
# condition: B1R antagonism rat; test substance 10 μM; Ca2+ FLIPR, CHO K1 rB1R cells
Return type: number; implicit unit %.

[in] Entry under review: COc1ccc(S(=O)(=O)N2CCC(OCC(=O)NCCC3CCC(C(c4ccc(F)cc4)N(C)C)CC3)C2)cc1OC (stereo not shown) [Example 430] . Reported B1R Ant. r [10 μM] % Inhibition?
[out] 21

[in] Entry under review: COc1cc(C)c(S(=O)(=O)N2CCC(OCC(=O)NCCC3CCC(C(c4ccc(F)cc4)N(C)C)CC3)C2)c(C)c1 (stereo not shown) [Example 509] . Reported B1R Ant. r [10 μM] % Inhibition?
[out] 94

[in] Entry under review: CN(C)C(c1ccc(Cl)cc1)C1CCC(CNC(=O)COC2CCN(S(=O)(=O)c3ccc(Cl)cc3)C2)CC1 (stereo not shown) [Example 384] . Reported B1R Ant. r [10 μM] % Inhibition?
[out] 25

[in] Entry under review: CCN(CCOCC(=O)NCCC1CCC(C(c2cccc(F)c2)N(C)C)CC1)S(=O)(=O)c1c(C)cc(OC)c(C)c1C (stereo not shown) [Example 209] . Reported B1R Ant. r [10 μM] % Inhibition?
[out] 60

[in] Entry under review: CN(C)C(c1cccc(F)c1)C1CCC(CNC(=O)COC2CCN(S(=O)(=O)c3ccc(F)cc3)C2)CC1 (stereo not shown) [Example 275] . Reported B1R Ant. r [10 μM] % Inhibition?
[out] 17

[in] Entry under review: CN(C)C(c1ccc(F)cc1)C1CCC(CNC(=O)COC2CCCN(S(=O)(=O)c3ccccc3)C2)CC1 (stereo not shown) [Example 488] . Reported B1R Ant. r [10 μM] % Inhibition?
[out] −6

[in] Entry under review: COc1cc(C)c(S(=O)(=O)N2CCC(CCOCC(=O)NCC3CCC(C(CCc4ccccc4)N(C)C)CC3)CC2)c(C)c1C (stereo not shown) [Example 521] . Reported B1R Ant. r [10 μM] % Inhibition?
[out] 11

[in] Entry under review: CN(C)C(c1cccc(F)c1)C1CCC(NC(=O)COC2CCN(S(=O)(=O)c3ccc(Cl)cc3Cl)C2)CC1 (stereo not shown) [Example 283] . Reported B1R Ant. r [10 μM] % Inhibition?
[out] 24

[in] Entry under review: COc1ccc(S(=O)(=O)N2CCCCC2COCC(=O)NCCC2CCC(C(c3cccc(F)c3)N(C)C)CC2)cc1OC (stereo not shown) [Example 581] . Reported B1R Ant. r [10 μM] % Inhibition?
[out] 8

[in] Entry under review: COc1ccc(S(=O)(=O)N2Cc3ccccc3CC2COCC(=O)NCC2CCC(C(CCc3ccccc3)N(C)C)CC2)cc1 (stereo not shown) [Example 373] . Reported B1R Ant. r [10 μM] % Inhibition?
[out] 12

[in] Entry under review: COc1cc(C)c(S(=O)(=O)N2CCN(CCOCC(=O)NCC3CCC(C(CCc4ccccc4)N(C)C)CC3)CC2)c(C)c1C (stereo not shown) [Example 528] . Reported B1R Ant. r [10 μM] % Inhibition?
[out] 14

[in] Entry under review: COc1cc(C)c(S(=O)(=O)N(C)CCOCC(=O)NCCC2CCC(C(c3ccc(Cl)cc3)N(C)C)CC2)c(C)c1C (stereo not shown) [Example 317] . Reported B1R Ant. r [10 μM] % Inhibition?
[out] 18

[in] Entry under review: CN(C)C(c1ccc(F)cc1)C1CCC(NC(=O)COCCN2CCN(S(=O)(=O)c3ccccc3)CC2)CC1 (stereo not shown) [Example 502] . Reported B1R Ant. r [10 μM] % Inhibition?
[out] 21

[in] Entry under review: CN(C)C(c1ccc(F)cc1)C1CCC(CNC(=O)COCCN(C)S(=O)(=O)c2ccc(Cl)cc2Cl)CC1 (stereo not shown) [Example 249] . Reported B1R Ant. r [10 μM] % Inhibition?
[out] 55

[in] Entry under review: CN(C)C(c1ccc(Cl)cc1)C1CCC(CNC(=O)COC2CCN(S(=O)(=O)c3ccccc3)CC2)CC1 (stereo not shown) [Example 471] . Reported B1R Ant. r [10 μM] % Inhibition?
[out] 15

[in] Entry under review: COc1ccc(S(=O)(=O)N2CCCCC2CCOCC(=O)NCC2CCC(C(c3cccc(F)c3)N(C)C)CC2)cc1 (stereo not shown) [Example 203] . Reported B1R Ant. r [10 μM] % Inhibition?
[out] 55

[in] Entry under review: COc1ccc(S(=O)(=O)N2CCCCC2COCC(=O)NCC2CCC(C(c3ccc(F)cc3)N(C)C)CC2)cc1OC (single isomer, unassigned) [Example 534] . Reported B1R Ant. r [10 μM] % Inhibition?
[out] −4

[in] Entry under review: COc1cc(C)c(S(=O)(=O)N2CCC(OCC(=O)NCC3CCC(C(c4ccc(Cl)cc4)N(C)C)CC3)CC2)c(C)c1C (stereo not shown) [Example 498] . Reported B1R Ant. r [10 μM] % Inhibition?
[out] 2

[in] Entry under review: COc1cc(C)c(S(=O)(=O)N(CCOCC(=O)NCCC2CCC(C(c3cccs3)N(C)C)CC2)Cc2ccccc2)c(C)c1C (stereo not shown) [Example 254] . Reported B1R Ant. r [10 μM] % Inhibition?
[out] −1

[in] Entry under review: CN(C)C(c1ccc(F)cc1)C1CCC(NC(=O)COCCN(C)S(=O)(=O)c2ccc(Cl)cc2Cl)CC1 (stereo not shown) [Example 356] . Reported B1R Ant. r [10 μM] % Inhibition?
[out] 43

[in] Entry under review: CN(C)C(c1ccc(Cl)cc1)C1CCC(CCNC(=O)COCCC2CCN(S(=O)(=O)c3ccccc3)CC2)CC1 (stereo not shown) [Example 531] . Reported B1R Ant. r [10 μM] % Inhibition?
[out] −1

[in] Entry under review: CN(C)C(c1cccc(F)c1)C1CCC(CCNC(=O)COCCN(C)S(=O)(=O)c2ccc(OC(F)(F)F)cc2)CC1 (stereo not shown) [Example 215] . Reported B1R Ant. r [10 μM] % Inhibition?
[out] 22

[in] Entry under review: Cc1ccc(S(=O)(=O)N2CCC(OCC(=O)NCCC3CCC(C(c4ccc(F)cc4)N(C)C)CC3)C2)cc1 (stereo not shown) [Example 491] . Reported B1R Ant. r [10 μM] % Inhibition?
[out] 16

[in] Entry under review: Cc1cc(C)c(S(=O)(=O)N(C)CCOCC(=O)NC2CCC(C(c3ccccc3)N(C)C)CC2)c(C)c1 (stereo not shown) [Example 63] . Reported B1R Ant. r [10 μM] % Inhibition?
[out] 8

[in] Entry under review: COc1cc(C)c(S(=O)(=O)N2CCN(CCOCC(=O)NCC3CCC(C(c4cccc(F)c4)N(C)C)CC3)CC2)c(C)c1C (stereo not shown) [Example 223] . Reported B1R Ant. r [10 μM] % Inhibition?
[out] −5

[in] Entry under review: CN(C)C(CCc1ccccc1)C1CCC(CNC(=O)COCC2CCCN(S(=O)(=O)c3ccccc3)C2)CC1 (stereo not shown) [Example 544] . Reported B1R Ant. r [10 μM] % Inhibition?
[out] 38

[in] Entry under review: CN(C)C(CCc1ccccc1)C1CCC(CNC(=O)COCCN(C)S(=O)(=O)c2ccc(OC(F)(F)F)cc2)CC1 (stereo not shown) [Example 567] . Reported B1R Ant. r [10 μM] % Inhibition?
[out] 42

[in] Entry under review: Cc1ccc(S(=O)(=O)N2CCC(OCC(=O)NCC3CCC(C(c4ccc(Cl)cc4)N(C)C)CC3)C2)cc1 (stereo not shown) [Example 304] . Reported B1R Ant. r [10 μM] % Inhibition?
[out] 19
